# Tgt: Leucyl-cystinyl aminopeptidase (Mus musculus) (UniProt Q8C129)
# Sequence (Q8C129 whole entry, looked up): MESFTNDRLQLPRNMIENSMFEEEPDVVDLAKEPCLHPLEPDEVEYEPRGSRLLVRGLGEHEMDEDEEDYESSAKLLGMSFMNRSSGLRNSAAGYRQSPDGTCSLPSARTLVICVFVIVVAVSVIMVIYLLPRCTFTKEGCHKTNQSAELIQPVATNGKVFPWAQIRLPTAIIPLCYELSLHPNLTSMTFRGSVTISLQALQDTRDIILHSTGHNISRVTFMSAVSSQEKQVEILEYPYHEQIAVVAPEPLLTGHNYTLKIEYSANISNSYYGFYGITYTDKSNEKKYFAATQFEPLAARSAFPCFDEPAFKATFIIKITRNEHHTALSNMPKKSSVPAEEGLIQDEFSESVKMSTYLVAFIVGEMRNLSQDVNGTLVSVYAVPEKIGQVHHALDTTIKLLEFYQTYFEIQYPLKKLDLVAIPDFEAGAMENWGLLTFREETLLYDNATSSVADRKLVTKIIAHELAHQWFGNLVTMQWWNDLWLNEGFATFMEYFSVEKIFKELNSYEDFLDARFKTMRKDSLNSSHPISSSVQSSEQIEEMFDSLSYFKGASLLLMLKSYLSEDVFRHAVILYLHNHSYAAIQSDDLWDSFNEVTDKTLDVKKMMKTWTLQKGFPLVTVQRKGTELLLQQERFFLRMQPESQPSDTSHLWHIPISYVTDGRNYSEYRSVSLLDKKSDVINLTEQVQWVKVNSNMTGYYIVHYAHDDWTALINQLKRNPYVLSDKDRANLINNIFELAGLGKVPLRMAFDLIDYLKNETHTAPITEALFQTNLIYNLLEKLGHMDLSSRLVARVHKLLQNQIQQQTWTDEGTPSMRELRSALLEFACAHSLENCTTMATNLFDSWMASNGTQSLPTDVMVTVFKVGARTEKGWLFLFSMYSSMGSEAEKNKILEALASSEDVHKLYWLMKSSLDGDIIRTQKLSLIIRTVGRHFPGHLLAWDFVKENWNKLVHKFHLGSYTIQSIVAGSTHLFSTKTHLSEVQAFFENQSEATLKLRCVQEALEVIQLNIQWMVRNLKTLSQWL
# Procedure details: IRAP activators, dose response, selectivity assay for ERAP1 modulator project, biochemical, Leu-AMC fluorescence, cherry-picked samples (AID 743339)
# Condition details: purified IRAP, Leu-AMC cleavage fluorescence, 1 h; at 11 µM (top of the series)
Give measured activation for each item. Keep answers brief.
Give bare numbers, in %.

Please report the recorded activation for Cc1noc(C)c1NC(=O)N(C)C[C@@H]1Oc2c(NC(=O)Nc3ccc(F)cc3)cccc2C(=O)N([C@H](C)CO)C[C@@H]1C .
36.7

Please report the recorded activation for CCCN(C)C[C@@H]1OCCCC[C@@H](C)Oc2ccc(NS(=O)(=O)c3cccs3)cc2C(=O)N([C@H](C)CO)C[C@@H]1C .
-6.14

Please report the recorded activation for CCCNC(=O)C[C@@H]1CC[C@@H]2[C@H](COC[C@H](O)CN2C(=O)Nc2cccc(Cl)c2)O1 .
30.1

Please report the recorded activation for COc1ccc2c3c([nH]c2c1)[C@H](CO)N(Cc1cc(F)ccc1F)CC31CN(C)C1 .
1.85

Please report the recorded activation for C[C@@H]1CCCCO[C@H](CN(C)C)[C@H](C)CN([C@H](C)CO)C(=O)c2cc(NS(=O)(=O)c3ccc(Cl)cc3)ccc2O1 .
8.36

Please report the recorded activation for CCCN(C)C[C@@H]1OCCCC[C@@H](C)Oc2ccc(NS(=O)(=O)c3ccccc3)cc2C(=O)N([C@H](C)CO)C[C@@H]1C .
-6.67

Give activation for each of the items listed below.
1. NC(=NCCc1c[nH]c2ccccc12)NS(=O)(=O)c1cc(F)ccc1F
2. COc1ccc(CN(C)C[C@@H]2OCCCC[C@@H](C)Oc3ccc(NS(=O)(=O)c4cccs4)cc3C(=O)N([C@H](C)CO)C[C@@H]2C)cc1

20.9
3.66
